List of pIC50 values.
Test system: Bacillus subtilis
Experiment: Antimicrobial activity against Bacillus subtilis NCIM 2921 assessed as growth inhibition after 24 hr by serial double dilution method
Format: functional, organism-based
Details: NCIM 2921, 24 h, read-out: IC50
pIC50 field: float, defined as -log10 of concentration (mol/L).

Some compounds with recorded pIC50:
smilesText | observedResult
C/C(=N/NC(=S)N1CCNCC1)c1ccccc1 | 5.75
C/C(=N\NC(=S)N1CCNCC1)c1ccc(Cl)cc1 | 6.01

I'm curious: which pIC50 was measured for C/C(=N\NC(=S)N1CCNCC1)c1cccc([N+](=O)[O-])c1 tested on Bacillus subtilis?
6.49

I'm curious: which pIC50 was measured for C/C(=N\NC(=S)N1CCNCC1)c1ccc(O)cc1 tested on Bacillus subtilis?
5.46

I'm curious: which pIC50 was measured for S=C(N/N=C/c1ccc(Cl)cc1)N1CCNCC1 tested on Bacillus subtilis?
6.89

I'm curious: which pIC50 was measured for COc1ccc(/C=N/NC(=S)N2CCNCC2)cc1 tested on Bacillus subtilis?
6.18

I'm curious: which pIC50 was measured for Cc1ccc(/C=N/NC(=S)N2CCNCC2)cc1 tested on Bacillus subtilis?
5.77
